# System: SK-OV-3 ovarian
# procedureSummary: NCI tumour cell line growth inhibition, 48 h; in the data active = GI50 below about 0.43 µM; inactive = the rest
Where a SMILES comes first, the peptide text is derived from it. [ ]: non-standard residue; d: D form. The star is where a group is joined. ξ: configuration not given here. NMeF = CN[C@@H](Cc1ccccc1)C(=O)O; NMeN = CN[C@@H](CC(N)=O)C(=O)O; NMeV = CN[C@H](C(=O)O)C(C)C; ξNMeV = CNC(C(=O)O)C(C)C; Boc = CC(C)(C)OC(=O)*; ξNMeA = CNC(C)C(=O)O; ξV = CC(C)C(N)C(=O)O
Classes used: true (active), false (inactive)

>  <compound>
O=C(c1cccs1)c1c(C(F)(F)F)n([O-])c2ccc(Cl)cc2[n+]1=O

>  <measuredOn>
SK-OV-3 ovarian

>  <discreteLabel>
false

$$$$
>  <compound>
Nc1c(C(=O)c2cccc(-c3ccncc3)c2)cnn1-c1ccc(F)cc1

>  <measuredOn>
SK-OV-3 ovarian

>  <discreteLabel>
false

$$$$
>  <compound>
COC(=O)C(C)N(C)C(=O)[C@H](CC(N)=O)N(C)C(=O)[C@@H]1CCCN1C(=O)[C@H](C(C)C)N(C)C(=O)C(C(C)C)N(C)C(=O)[C@H](Cc1ccccc1)N(C)C(=O)C(NC(=O)OC(C)(C)C)C(C)C (some centres undefined) (Boc-[ξV][NMeF][ξNMeV][NMeV]P[NMeN][ξNMeA]-OMe)

>  <measuredOn>
SK-OV-3 ovarian

>  <discreteLabel>
false

$$$$
>  <compound>
COC(=O)[C@@H](C)C[C@H](Cc1ccccc1)NC(=O)c1nc([C@@H](C[C@H](C(C)C)N(C)C(=O)[C@@H](NC(=O)[C@H]2CCCCN2C)C(C)C)OC(C)=O)sc1C(C)C

>  <measuredOn>
SK-OV-3 ovarian

>  <discreteLabel>
true

$$$$
>  <compound>
COC(=O)[C@]12CC[C@@H](C(=O)/C=C/c3cccnc3)[C@@H]1[C@H]1CC[C@@H]3[C@@]4(C)C/C(=C/c5cccnc5)C(=O)C(C)(C)[C@@H]4CC[C@@]3(C)[C@]1(C)CC2

>  <measuredOn>
SK-OV-3 ovarian

>  <discreteLabel>
false

$$$$
>  <compound>
C1CCC(C(CC2CCCCN2)C2CCCCC2)CC1 (centres undefined)

>  <measuredOn>
SK-OV-3 ovarian

>  <discreteLabel>
false

$$$$
>  <compound>
CC1CN=C(c2cccc(-c3ccc(-c4ccccc4)o3)c2)N1 (centres undefined)

>  <measuredOn>
SK-OV-3 ovarian

>  <discreteLabel>
false

$$$$
>  <compound>
C=C1C(=O)O[C@H]2[C@H]1CC/C(COC(=O)NCc1c[nH]c3ccc(Br)cc13)=C\CC[C@@]1(C)O[C@@H]21

>  <measuredOn>
SK-OV-3 ovarian

>  <discreteLabel>
false

$$$$
>  <compound>
O=c1[nH]c2c3ccncc3cc(-c3cccc(Cl)c3)c2c2cnccc12

>  <measuredOn>
SK-OV-3 ovarian

>  <discreteLabel>
false

$$$$
>  <compound>
COc1cccc(-n2ncc3c(N/N=C/c4cccc(F)c4)ncnc32)c1

>  <measuredOn>
SK-OV-3 ovarian

>  <discreteLabel>
false

$$$$
>  <compound>
N=C(N)c1ccc(-c2ccc(-c3ccc(F)cc3)s2)nc1

>  <measuredOn>
SK-OV-3 ovarian

>  <discreteLabel>
false

$$$$
>  <compound>
CNCCC/C=C1\c2cc3c(cc2-c2c1c1cc(OC)c(OC)cc1c(=O)n2C)OCO3

>  <measuredOn>
SK-OV-3 ovarian

>  <discreteLabel>
false

$$$$
>  <compound>
c1ccc(-c2cccc(-c3ccccn3)n2)nc1

>  <measuredOn>
SK-OV-3 ovarian

>  <discreteLabel>
true

$$$$
>  <compound>
CNC[C@@H](NC(=O)c1ccc(-c2nc([C@H]3CC[C@H](O)[C@@H](F)C3)cnc2N)cc1F)c1cc(F)cc(Br)c1

>  <measuredOn>
SK-OV-3 ovarian

>  <discreteLabel>
false

$$$$
